Molecular target: gingipain-1 (Porphyromonas gingivalis, UniProt P28784)
Sequence (P28784 228-719): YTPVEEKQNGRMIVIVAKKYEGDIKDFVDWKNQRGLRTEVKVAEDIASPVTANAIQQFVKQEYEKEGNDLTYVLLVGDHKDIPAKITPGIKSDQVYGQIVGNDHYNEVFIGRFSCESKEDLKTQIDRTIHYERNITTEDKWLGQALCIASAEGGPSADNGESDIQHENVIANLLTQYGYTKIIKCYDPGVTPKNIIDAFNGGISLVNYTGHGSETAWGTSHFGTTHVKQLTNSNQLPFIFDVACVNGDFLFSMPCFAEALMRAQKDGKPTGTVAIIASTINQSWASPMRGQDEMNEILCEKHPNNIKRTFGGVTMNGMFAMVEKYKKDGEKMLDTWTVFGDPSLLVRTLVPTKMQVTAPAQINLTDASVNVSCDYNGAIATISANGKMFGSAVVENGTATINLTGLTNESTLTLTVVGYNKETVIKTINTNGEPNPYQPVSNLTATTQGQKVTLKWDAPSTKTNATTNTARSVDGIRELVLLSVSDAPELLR
Assay: biochemical
Format: biochemical
Settings: pH 7.5, read-out: Activity -Gly-Gly
Please provide measured activity at 100 µM for the entries that follow.
Express it in %; write the number only.

## Task Would you kindly share the measured activity at 100 µM for O[C@H](CS)[C@H](O)CS (racemic) [Dithiothreitol] ?
## Result 159

## Task // query activity at 100 µM value for entry OCCS [Mercaptoethanol]
## Result 165

## Task May I ask what activity at 100 µM has been recorded for N[C@@H](CS)C(=O)O [Cysteine] ?
## Result 685

## Task Suppose we examine the compound N[C@@H](CCC(=O)N[C@@H](CS)C(=O)NCC(=O)O)C(=O)O [Glutathione] ; what activity at 100 µM value has been reported?
## Result 208
